System: LXRa:RXRa (NR concentration 270 nM, RXRa partner concentration 90 nM)
Experiment: PBM binding z-score (relative to random genomic background probes); higher = stronger binding; sequences stand for … in GC…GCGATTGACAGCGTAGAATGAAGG
Measured Parameter: PBM binding z-score
Simply state the number, no unit and no words.

Query :: I'd like to know its PBM binding z-score. The sequence in question is CGTCCAAGGTTATAGGAGGTCAGTGAAGACAGAT
Result :: 7.81

Query :: I'd like to know its PBM binding z-score. The sequence in question is AAAATGAGGTTATTAAGATCAGGGAATTGCGGTC
Result :: 1.63

Query :: I'd like to know its PBM binding z-score. The sequence in question is TTACCAAGGTGAGCTGAGGTCGTGGATCCAACTC
Result :: 0.85

Query :: I'd like to know its PBM binding z-score. The sequence in question is TTACCAAGGTGAAAGGACGTTGATGCACGCCTTG
Result :: 0.351

Query :: I'd like to know its PBM binding z-score. The sequence in question is TCTAGTTGGTCACGGAGGTCACACCCGACGGGTA
Result :: 3.31

Query :: I'd like to know its PBM binding z-score. The sequence in question is CCTTACGGGACACTCCAGGTTATAGCATCGGAGT
Result :: 0.511

Query :: I'd like to know its PBM binding z-score. The sequence in question is AGAACGAGTGCAATGAGTTGATAGCACGGGTGGC
Result :: -0.443

Query :: I'd like to know its PBM binding z-score. The sequence in question is CCGAGTAGATTATGGGGCATTCAGGCAACGGTGA
Result :: -0.0855

Query :: I'd like to know its PBM binding z-score. The sequence in question is TGAATGAGGTTAAAGATCTGGGAACGTGGCGTCG
Result :: 2.16

Query :: I'd like to know its PBM binding z-score. The sequence in question is AGTCGAAGTTCAGGACGAGGTAACGTAAAGCACG
Result :: 1.05

Query :: I'd like to know its PBM binding z-score. The sequence in question is AGAACGACGGCACGCTGAGTTGATAGCAGAGTAG
Result :: -0.427
